Tested on: MCF7
methodNotes: In vitro cytotoxicity assay was measured against human tumor MCF-7 cell line using camptothecin as a standard
Format: functional
conditionSummary: read-out: TD50 (the source's name)
parameter: CC50 (µg/mL)
Answers are plain numbers, in µg/mL.

Answered cases to consult:
Challenge: What CC50 value was documented for this molecule, CCC1(O)C(=O)OCc2c1cc1n(c2=O)Cc2cc3cc(OCCNC(=O)c4ccc[nH]4)ccc3nc2-1 (centres undefined) ?
Response given: 0.26

Challenge: Can you handle CCC1(O)C(=O)OCc2c1cc1n(c2=O)Cc2cc3cc(OCCNC(=O)c4cccs4)ccc3nc2-1 (centres undefined) next?
Response given: 0.068

Challenge: Can you handle CCC1(O)C(=O)OCc2c1cc1n(c2=O)Cc2cc3cc(OCCNC(=O)c4ccco4)ccc3nc2-1 (centres undefined) next?
Response given: 0.82

Proceeding to the next molecule to report its CC50.
Challenge: What CC50 value was documented for this molecule, CCC1(O)C(=O)OCc2c1cc1n(c2=O)Cc2cc3cc(OCCNC(=O)C4CCCO4)ccc3nc2-1 (centres undefined) ?
Response given: 0.9

###

Tested on: KB
methodNotes: In vitro cytotoxicity assay was measured against human tumor KB cell line using camptothecin as a standard
Assay type: functional
conditionSummary: read-out: TD50 (the source's name)
Doc: threshold 5 ng/mL (exclusive). Items with CC50 beneath it return met; others return not met.

Solved cases below.
Challenge: CC50 strictly < 5 ng/mL for this compound? CCC1(O)C(=O)OCc2c1cc1n(c2=O)Cc2cc3cc(OCCNC(=O)C4CCCO4)ccc3nc2-1 (stereo not given)
Response given: not met

Challenge: Can you handle CCC1(O)C(=O)OCc2c1cc1n(c2=O)Cc2cc3cc(OCCNC(=O)c4cccs4)ccc3nc2-1 (stereo not given) next?
Response given: met

Challenge: Can you handle CCC1(O)C(=O)OCc2c1cc1n(c2=O)Cc2cc3cc(OCCNC(=O)c4nccn4COC)ccc3nc2-1 (stereo not given) next?
Response given: not met

Challenge: Can you handle CCC1(O)C(=O)OCc2c1cc1n(c2=O)Cc2cc3cc(OCCNC(=O)c4cccn4C)ccc3nc2-1 (stereo not given) next?
Response given: met

Challenge: Can you handle CCC1(O)C(=O)OCc2c1cc1n(c2=O)Cc2cc3cc(OCCNC(=O)/C=C/c4ccco4)ccc3nc2-1 (stereo not given) next?
Response given: not met

New cases:
Challenge: CC50 strictly < 5 ng/mL for this compound? CCC1(O)C(=O)OCc2c1cc1n(c2=O)Cc2cc3cc(OCCNC(=O)S(=O)(=O)c4cccs4)ccc3nc2-1 (stereo not given)
Response given: met

Challenge: Can you handle COc1cccc2c1C(=O)c1c(O)c3c(c(O)c1C2=O)C[C@@](O)(C(=O)CO)C[C@@H]3O[C@H]1C[C@H](N)[C@H](O)[C@H](C)O1 next?
Response given: not met

Challenge: Can you handle CCC1(O)C(=O)OCc2c1cc1n(c2=O)Cc2cc3cc(OCCNC(=O)c4ccc[nH]4)ccc3nc2-1 (stereo not given) next?
Response given: met

Origin of measurements: ChEMBL document CHEMBL1128108
